assay: total protein half-life in vivo (active degradation + dilution); higher = more stable protein; conditions: E. coli NCM3722 delta-smpB; growth: N-lim chemostat; doubling time 6 h
Answer each item with its documented total protein half-life in vivo.
The figure you give is taken to be in h; do not add the unit.

Q: Quick one: total protein half-life in vivo for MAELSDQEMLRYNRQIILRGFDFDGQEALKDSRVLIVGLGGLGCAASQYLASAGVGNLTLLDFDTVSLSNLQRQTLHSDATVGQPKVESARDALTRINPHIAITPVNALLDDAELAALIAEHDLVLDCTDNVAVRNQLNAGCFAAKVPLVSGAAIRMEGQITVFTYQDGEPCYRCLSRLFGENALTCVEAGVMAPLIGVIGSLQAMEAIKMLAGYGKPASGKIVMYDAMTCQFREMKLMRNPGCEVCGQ ?
Result: 4.36

Q: GET /values?readout=total protein half-life in vivo&item= MNSFNEGVVSPLLSFWRRSLMLAGALLLTACSHNSSLPPFTASGFAEDQGAVRIWRKDSGDNVHLLAVFSPWRSGDTTTREYRWQGDNLTLININVYSKPPVNIRARFDDRGDLSFMQRESDGEKQQLSNDQIDLYRYRADQIRQISDALRQGRVVLRQGRWHAMEQTVTTCEGQTIKPDLDSQAIAHIERRQSRSSVDVSVAWLEAPEGSQLLLVANSDFCRWQPNEKTF
Result: 6.11
